Test system: Pseudomonas aeruginosa (ATCC 27853)
Assay: Minimum bactericidal concentration (MBC) assay
Assay type: cell-based
Design: unit: µg/mL
Conditions: Tables 11-21, no unit printed
Description: First, each of Pseudomonas aeruginosa (ATCC 27853) and Staphylococcus aureus (ATCC 29213) was cultured in 3% (w/v) TSB (tryptic soy broth) liquid medium at 37° C. and 200 rpm for 4 hours, and then further cultured under the same conditions for 3 hours to a concentration of 5×10^6 CFU/ml. Strain solutions were prepared by diluting each of the further cultured strains with SP (sodium phosphate; 10 mM sodium phosphate, 1% TSB) buffer to a final concentration of 2×10^5 CFU/ml. […]
No end group written: not given here.
measured.property: MBC Pseudomonas aeruginosa

# annotated cases, reported MBC Pseudomonas aeruginosa shown
substance="KKMMKKGGKFGGFMAIGMGIR [Peptide K4-T69G]" experimental_result=2
substance="KTMMQSGGTAGTFMAIGMGIR [KU-5878-F67A]" experimental_result="> 300 mg/L"
substance="KTMMASGGTFGTFMAIGMGIR [KU-5878-Q62A]" experimental_result="> 300 mg/L"
substance="KKIIKKGGKFGTFIAIGIGIR [Peptide K4-4MI]" experimental_result=3
substance="-TMMQSGGTFGTFMAIGMGIR [Peptide 5878-d58K]" experimental_result="300 mg/L"
substance="KKMMKKGGKFGTF--IG-GIR [d 71M 72A 75M]" experimental_result="2 mg/L"
substance="KTMMQSGGTFGTFMAIGMGIRKK [Peptide 5878-KK]" experimental_result="15 mg/L"
substance="KKMM-KGGKFGTF-AIG-GIR [d 62K 71M 75M]" experimental_result="3 mg/L"
substance="KTMMSSGGTFGTFMAIGMGIR [KU-5878-Q62S]" experimental_result="> 300 mg/L"
substance="KRMMQSGGTFGTFMAIGMGIR [KU-5878-T59R]" experimental_result="30 mg/L"

# input Tell me the measured MBC Pseudomonas aeruginosa of KTMMQS-GTFGTF-AIGM-IR [5878-d64G, d71M, d76G] , please.
# output 200 mg/L

# input Item KK---KGGKFGTF-AIG-GIR [d 60M 61M 62K 71M 75M] has what recorded MBC Pseudomonas aeruginosa?
# output 80 mg/L

###

System: Pseudomonas aeruginosa (ATCC 27853)
Assay: Minimum bactericidal concentration (MBC) assay
Assay type: cell-based
Details: Tables 11-21, no unit printed
Description: First, each of Pseudomonas aeruginosa (ATCC 27853) and Staphylococcus aureus (ATCC 29213) was cultured in 3% (w/v) TSB (tryptic soy broth) liquid medium at 37° C. and 200 rpm for 4 hours, and then further cultured under the same conditions for 3 hours to a concentration of 5×10^6 CFU/ml. Strain solutions were prepared by diluting each of the further cultured strains with SP (sodium phosphate; 10 mM sodium phosphate, 1% TSB) buffer to a final concentration of 2×10^5 CFU/ml. […]
No end group written: not given here.
measured.property: MBC Pseudomonas aeruginosa

Below, 2 sequences whose answers are already recorded.
sequence="KTMMQSGGTFGTFMAIGMGKR [KU-5878-I77K]" measured_property="MBC Pseudomonas aeruginosa" experimental_result="> 300 µg/mL"
sequence="KTMMQSGGTFGTFMAIGMGTR [KU-5878-I77T]" measured_property="MBC Pseudomonas aeruginosa" experimental_result="> 300 µg/mL"

Now for another entry.
# input What reported MBC Pseudomonas aeruginosa corresponds to KTMMQSGGTFGTFMGIGMGIR [KU-5878-A72G] on Pseudomonas aeruginosa (ATCC 27853)?
# output > 300 µg/mL
